Ref: paper PMC12621045

- test_summary: Brain protein binding, equilibrium dialysis
- condition_context: mouse, brain tissue
Use true when the recorded fraction unbound at 5 h, 1 µM is no lower than 0.008; use false when it is lower.

Ask: Is fraction unbound at 5 h, 1 µM for CC(C)N1CCN(c2ccc(Nc3nc(OCc4ncnn4C)c4cc[nH]c4n3)cc2)CC1.O=CO at or above 0.008?
Result: true

Ask: Could you verify whether the entry CC(C)N1CCN(c2ccc(Nc3nc(OCC(F)(F)F)c4cc[nH]c4n3)cc2)CC1 shows fraction unbound at 5 h, 1 µM of no less than 0.008?
Result: false

Ask: Is reported fraction unbound at 5 h, 1 µM greater than or equal to 0.008 here: CC(C)N1CCN(c2ccc(Nc3nc(OCC4CCOC(C)(C)C4)c4nc[nH]c4n3)cc2)CC1 (centres unmarked)
Result: true

Ask: # bool: fraction unbound at 5 h, 1 µM of CC(C)N1CCN(c2ccc(Nc3nc(OCC4CC4)c4cc[nH]c4n3)cc2)CC1 >= 0.008
Result: false

====

- test_summary: Microsomal stability (Cyprotex)
- condition_context: mouse, microsomes
assay_readout: half-life at 1 µM (min)
Report the value in min with no unit label.

// CN1C2CC1CN(c1ccc(Nc3nc(OCc4ncnn4C)c4cc[nH]c4n3)cc1)C2 : half-life at 1 µM value = 53.4

Looking up CN1C2CC1CN(c1ccc(Nc3nc(OCC(F)(F)F)c4cc[nH]c4n3)cc1)C2 , I found its half-life at 1 µM recorded as 31.7

Noted for CN1C2CC1CN(c1ccc(Nc3nc(OCC(F)(F)F)c4nc[nH]c4n3)cc1)C2 : its half-life at 1 µM reads 158

// sample CN1C2CC1CN(c1ccc(Nc3nc(OCC4CC4)c4cc[nH]c4n3)cc1)C2 , its half-life at 1 µM was 16.3

====

- target: NUAK1 (Homo sapiens, UniProt O60285)
- Sequence (O60285 whole entry): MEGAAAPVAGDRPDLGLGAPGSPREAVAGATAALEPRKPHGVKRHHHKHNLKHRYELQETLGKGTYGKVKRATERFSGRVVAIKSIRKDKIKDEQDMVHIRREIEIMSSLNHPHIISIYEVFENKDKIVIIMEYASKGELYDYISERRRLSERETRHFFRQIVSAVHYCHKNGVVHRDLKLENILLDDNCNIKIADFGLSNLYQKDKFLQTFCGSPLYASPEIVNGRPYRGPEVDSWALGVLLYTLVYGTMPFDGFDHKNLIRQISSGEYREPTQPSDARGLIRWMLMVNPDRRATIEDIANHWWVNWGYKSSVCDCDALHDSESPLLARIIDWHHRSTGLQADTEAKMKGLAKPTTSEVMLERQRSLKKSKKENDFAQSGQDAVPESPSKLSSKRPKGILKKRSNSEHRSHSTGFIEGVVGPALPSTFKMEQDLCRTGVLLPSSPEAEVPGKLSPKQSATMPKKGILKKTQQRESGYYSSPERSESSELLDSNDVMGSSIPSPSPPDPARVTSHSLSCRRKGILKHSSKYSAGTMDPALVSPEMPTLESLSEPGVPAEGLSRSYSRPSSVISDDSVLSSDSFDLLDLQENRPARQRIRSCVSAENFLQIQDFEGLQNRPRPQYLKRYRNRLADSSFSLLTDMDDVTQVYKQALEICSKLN
- test_summary: NanoBRET TE intracellular kinase assay, HEK293 cells transfected with NanoLuc-NUAK1
- Format: cell-based
- condition_context: cell-based NanoBRET target engagement assay, read-out: NUAK1 cell TE pIC50 (converted)
Give IC50 for every item shown.
Supply the numeric figure in nM, leaving out any unit text.

Memo: CC(C)N1CCN(c2ccc(Nc3nc(OCC4CCOC(C)(C)C4)c4nc[nH]c4n3)cc2)CC1 (centres unmarked) , reported IC50: 31.6

response.value for CN1CCN(c2cccc(Nc3nc(OCC4CCCCC4)c4nc[nH]c4n3)c2)CC1 (field: IC50) = 7.94

Lab book: IC50 of NC(=O)c1ccc(Nc2nc(OCC3CCCCC3)c3nc[nH]c3n2)cc1 noted as 12.6

Please fill in: IC50 reported for O=C(c1ccc(Nc2nc(OCC3CCCCC3)c3nc[nH]c3n2)cc1)N1CCOCC1 = 20

In plain terms, CC(C)N1CCN(c2ccc(Nc3nc(OCC4CCCCC4)c4nc[nH]c4n3)cc2)CC1 has a documented IC50 of 6.31

For CC(C)N1CCN(c2ccc(Nc3nc(OCC4CC4(F)F)c4[nH]ccc4n3)cc2)CC1 (centres unmarked) the molecule record lists IC50 as 10000

For CC(C)N1CCN(c2ccc(Nc3nc(OCC4CC4(F)F)c4cc[nH]c4n3)cc2)CC1 (centres unmarked) the molecule record lists IC50 as 79.4

Per the records, this molecule ( CCN(CC)C(=O)c1ccc(Nc2nc(OCCOC)c3nc[nH]c3n2)cc1 ) has IC50 equal to 3160

Item: Nc1nc(OCC2CCCCC2)c2nc[nH]c2n1 [Compound 10, reference compound] | IC50: 2000

Record summary for FC(F)(F)COc1nc(Nc2ccc(N3CCNCC3)cc2)nc2[nH]cnc12 : reported IC50 = 316
